System: HCoV-229E
Set-up: species or system Huh-7; HTS, protection from HCoV-229E induced cell death, luminescent cell viability (CellCounting-Lite 2.0), inhibition rate
Settings: 24 h post infection, 1 h compound pre-incubation; 10 µM; inhibitor
Screen size: about 3,300 compounds; about 95 (3%) showed an effect of 50% or more. The sample holds strong results, similar compounds and a random draw of the others, so the mix is not that of the screen.
property-name: 229E Inhibition rate (%)
Respond numerically; units are % and should not be typed.

These solved cases illustrate the format of a correct answer.
Cc1ccc(C(=O)O)cc1 : 6.6
O=C(/C=C/c1ccc(O)c(O)c1/C=C/c1ccc(O)c(O)c1)O[C@H](Cc1ccc(O)c(O)c1)C(=O)O : 17.8
O=C(O)Cc1ccc(O)c(O)c1 [3,4-Dihydroxybenzeneacetic acid] : 39.5

Recorded 229E Inhibition rate for COc1cc(O)c2c(=O)c(O[C@@H]3O[C@H](CO[C@@H]4O[C@@H](C)[C@H](O)[C@@H](O)[C@H]4O)[C@@H](O)[C@H](O)[C@H]3O)c(-c3ccc(OC)c(O)c3)oc2c1 [Ombuoside] , please? 41.9

Would you kindly share the measured 229E Inhibition rate for C[C@@H]1O[C@@H](OC[C@H]2O[C@@H](Oc3c(-c4ccc(O)cc4)oc4cc(O[C@@H]5O[C@@H](C)[C@H](O)[C@@H](O)[C@H]5O)cc(O)c4c3=O)[C@H](O)[C@@H](O)[C@H]2O)[C@H](O)[C@H](O)[C@H]1O ? 8.6

Look up 229E Inhibition rate for this compound: O=C1C=CCO1 8.7

Which 229E Inhibition rate is listed for COc1cc(O[C@@H]2O[C@H](CO[C@@H]3O[C@H](CO)[C@@H](O)[C@H](O)[C@H]3O)[C@@H](O)[C@H](O)[C@H]2O)c2c(O)c3c(=O)cc(C)oc3cc2c1 [Rubrofusarin gentiobioside] ? 20.7

Could you tell me which 229E Inhibition rate is on file for C=C(CO)C(=O)O[C@H]1CC(=C)[C@@H]2C[C@H](O)C(=C)[C@@H]2[C@H]2OC(=O)C(=C)[C@@H]21 ? 8.5

----------
Test system: HCoV-229E
Parameters: species or system Huh-7; HTS, protection from HCoV-229E induced cell death, luminescent cell viability (CellCounting-Lite 2.0), inhibition rate
Settings: 24 h post infection, 1 h compound pre-incubation; 10 µM; inhibitor
Screen size: about 3,300 compounds; about 95 (3%) showed an effect of 50% or more. For the sample, strong results were picked, then their nearest neighbours and some compounds at random.
This section presents molecules with their documented 229E Inhibition rate values.
# value in %; strip the unit string

Example cases with answers are listed next.
COc1cc(/C=C/C(=O)NCC(O)c2ccc(O)cc2)ccc1O (stereo not shown) : 7.9
CCC/C=C1\OC(=O)C2=C1CC[C@H](O)[C@H]2O [Senkyunolide I] : 43.1
Cc1ccc(C(=O)O)cc1C : 23.9

Record COc1ccc(C(C)=O)c(O[C@@H]2O[C@H](CO[C@@H]3OC[C@H](O)[C@H](O)[C@H]3O)[C@@H](O)[C@H](O)[C@H]2O)c1 [Apiopaeonoside] : what is its 229E Inhibition rate with HCoV-229E? 0

Record CC(=O)c1ccc(O)c(O)c1 [3',4'-Dihydroxyacetophenone] : what is its 229E Inhibition rate with HCoV-229E? 12.4

Give the reported 229E Inhibition rate for COc1ccc(C(C)=O)cc1O [3-Hydroxy-4-methoxyacetophenone] (system: HCoV-229E). 50.5

# query: 229E Inhibition rate | item C[C@@H]1O[C@@H](O[C@H]2[C@H](Oc3cc(O)c4c(=O)cc(-c5ccc(O)cc5)oc4c3)O[C@H](CO[C@@H]3O[C@H](CO)[C@@H](O)[C@H](O)[C@H]3O)[C@@H](O)[C@@H]2O)[C@H](O)[C@H](O)[C@H]1O [Apigenin-7-O-(2G-rhamnosyl)gentiobioside] | system: HCoV-229E 22.2

Query for HCoV-229E: what 229E Inhibition rate does the record show for Cc1cn([C@@H]2O[C@H](CO)[C@@H](O)[C@H]2O)c(=O)[nH]c1=O ? 14.9

Lab request: please report 229E Inhibition rate under test system HCoV-229E for CCC/C=C1\OC(=O)C2=C1CC[C@H]1[C@H]3C=C4C(=O)O/C(=C\CCC)[C@@]4(CC3)[C@@H]21 [Levistolide A] 60.4
